Tested on: Sclerotinia fructicola
TEST PROTOCOL: Mycelial growth test
Type: cell-based
REPORTED CONDITIONS: Sclerotinia, 72 h, SF, 5 ppm, read-out: Percent Fungus Growth Inhibition
REPORTED ENDPOINT: inhibition at 5 ppm (%)
// note: answer is a bare numeric in %

If you can, please state the reported inhibition at 5 ppm value of O=c1c(Cl)nsnc1Oc1ccccc1 [Compound 2] .
52

Another compound: CCCCOc1ccc(Oc2nsnc(Cl)c2=O)cc1 [Compound 6]
0

Another compound: O=c1c(Cl)nsnc1Oc1ccc([N+](=O)[O-])cc1Cl [Compound 53]
63

Another compound: O=c1c(Cl)nsnc1Oc1ccc(O)cc1 [Compound 35]
8

Another compound: CC(=O)Nc1ccc(Oc2nsnc(Cl)c2=O)cc1 [Compound 8]
0

Another compound: Cc1cc(Oc2nsnc(Cl)c2=O)cc(C)c1Cl [Compound 59]
71

Another compound: Cc1cc(C)cc(Oc2nsnc(Cl)c2=O)c1 [Compound 25]
82

Another compound: O=c1c(Cl)nsnc1Oc1ccc([N+](=O)[O-])cc1 [Compound 9]
58

Another compound: O=c1c(Cl)nsnc1Oc1ccc(Cl)c(Cl)c1 [Compound 16]
64

Another compound: COc1cc(Cl)cc(Oc2nsnc(Cl)c2=O)c1 [Compound 52]
65

Another compound: CC(=O)Nc1ccccc1Oc1nsnc(Cl)c1=O [Compound 43]
0

----------
Consider the following compounds; for each one, report its inhibition at 10 ppm.
Test system: Alternaria solani
TEST PROTOCOL: Mycelial growth test
Type: cell-based
REPORTED CONDITIONS: Alternaria solani, 72 h, AS, 10 ppm, read-out: Percent Fungus Growth Inhibition
// note: answer is a bare numeric in %

If you can, please state the reported inhibition at 10 ppm value of CCCCOc1ccc(Oc2nsnc(Cl)c2=O)cc1 [Compound 6] .
0

Another compound: Cc1ccc(Oc2nsnc(Cl)c2=O)cc1 [Compound 3]
63

Another compound: Cc1ccc(Oc2nsnc(Cl)c2=O)c(C)c1 [Compound 23]
81

Another compound: Cc1cccc(C)c1Oc1nsnc(Cl)c1=O [Compound 24]
88

Another compound: Cc1ccccc1Oc1nsnc(Cl)c1=O [Compound 22]
88

Another compound: O=C(O)Cc1ccccc1Oc1nsnc(Cl)c1=O [Compound 45]
0

----------
Test system: Erysiphe polygoni
TEST PROTOCOL: Spore germination test
Assay type: cell-based
REPORTED CONDITIONS: EP, 40 ppm, 48 hours
REPORTED ENDPOINT: Spore Germination Rating

If you can, please state the reported Spore Germination Rating value of Cc1cc(Oc2nsnc(Cl)c2=O)cc(C)c1Cl [Compound 59] .
1 (10-40)

Another compound: Cc1cccc(C)c1Oc1nsnc(Cl)c1=O [Compound 24]
0 (0-10)

Another compound: CSc1ccc(Oc2nsnc(Cl)c2=O)cc1 [Compound 39]
0 (0-10)

Another compound: O=c1c(Cl)nsnc1Oc1cccc2ccccc12 [Compound 32]
0 (0-10)

Another compound: O=c1c(Cl)nsnc1Oc1ccc([N+](=O)[O-])cc1 [Compound 9]
4 (80-100)

Another compound: Cc1cc(Oc2nsnc(Cl)c2=O)cc(C)c1Br [Compound 60]
0 (0-10)

Another compound: Cc1cc(Cl)ccc1Oc1nsnc(Cl)c1=O [Compound 55]
1 (10-40)

Another compound: O=c1c(Cl)nsnc1Oc1c(Cl)cc(Cl)cc1Cl [Compound 30]
0 (0-10)

Another compound: O=c1c(Cl)nsnc1Oc1cccc(C(F)(F)F)c1 [Compound 44]
0 (0-10)

Another compound: CCCCNC(=O)n1c(NC(=O)OC)nc2ccccc21 [Benomyl, reference compound]
0 (0-10)

----------
Test system: Sclerotinia fructicola
TEST PROTOCOL: Mycelial growth test
Type: cell-based
REPORTED CONDITIONS: Sclerotinia, 72 h, SF, 5 ppm, read-out: Percent Fungus Growth Inhibition
REPORTED ENDPOINT: inhibition at 5 ppm (%)
// note: answer is a bare numeric in %

If you can, please state the reported inhibition at 5 ppm value of Cc1cc(Cl)ccc1Oc1nsnc(Cl)c1=O [Compound 55] .
42

Another molecule: O=C(O)Cc1ccccc1Oc1nsnc(Cl)c1=O [Compound 45]
9

Another molecule: Cc1ccc(Oc2nsnc(Cl)c2=O)c(Br)c1 [Compound 57]
68

----------
Test system: Pythium ultimum
TEST PROTOCOL: Mycelial growth test
Assay type: cell-based
REPORTED CONDITIONS: Globisporangium ultimum, 72 h, PU, 40 ppm, read-out: Percent Fungus Growth Inhibition
REPORTED ENDPOINT: inhibition at 40 ppm (%)
// note: answer is a bare numeric in %

If you can, please state the reported inhibition at 40 ppm value of CS(=O)(=O)c1ccc(Oc2nsnc(Cl)c2=O)cc1 [Compound 41] .
100

Another molecule: O=c1c(Cl)nsnc1Oc1ccc([N+](=O)[O-])cc1Cl [Compound 53]
100

Another molecule: N#Cc1c(Cl)c(Cl)c(Cl)c(C#N)c1Cl [Chlorothalonil, reference compound]
100

Another molecule: CC(=O)c1ccc(Oc2nsnc(Cl)c2=O)cc1 [Compound 47]
100

Another molecule: Cc1cc(Oc2nsnc(Cl)c2=O)ccc1Cl [Compound 54]
87

Another molecule: CCCCOc1ccc(Oc2nsnc(Cl)c2=O)cc1 [Compound 6]
22

Another molecule: O=c1c(Cl)nsnc1Oc1ccccc1Cl [Compound 14]
100

Another molecule: O=c1c(Cl)nsnc1Oc1ccc(Cl)c(Cl)c1 [Compound 16]
56

Another molecule: CC(=O)c1cccc(Oc2nsnc(Cl)c2=O)c1 [Compound 48]
100

Another molecule: CCOC(=O)c1ccc(Oc2nsnc(Cl)c2=O)cc1 [Compound 7]
100

----------
System: Alternaria solani
TEST PROTOCOL: Mycelial growth test
Format: cell-based
REPORTED CONDITIONS: Alternaria solani, 72 h, AS, 5 ppm, read-out: Percent Fungus Growth Inhibition
REPORTED ENDPOINT: inhibition at 5 ppm (%)
// note: answer is a bare numeric in %

If you can, please state the reported inhibition at 5 ppm value of O=C(O)c1ccc(Oc2nsnc(Cl)c2=O)cc1 [Compound 50] .
33

Another compound: COc1ccc(Cl)c(Oc2nsnc(Cl)c2=O)c1 [Compound 51]
52

Another compound: N#CCc1ccc(Oc2nsnc(Cl)c2=O)cc1 [Compound 46]
71

Another compound: CC(C)(C)c1ccc(Oc2nsnc(Cl)c2=O)cc1 [Compound 4]
13

Another compound: CSc1ccc(Oc2nsnc(Cl)c2=O)cc1 [Compound 39]
42

Another compound: CNC(=O)Nc1ccc(Oc2nsnc(Cl)c2=O)cc1 [Compound 28]
40

Another compound: Cc1ccc(Oc2nsnc(Cl)c2=O)c(Br)c1 [Compound 57]
71

Another compound: O=c1c(Cl)nsnc1Oc1ccc(Br)cc1 [Compound 15]
54

Another compound: COc1cc(Cl)cc(Oc2nsnc(Cl)c2=O)c1 [Compound 52]
52

Another compound: O=c1c(Cl)nsnc1Oc1cccc(Cl)c1 [Compound 13]
45

Another compound: O=c1c(Cl)nsnc1Oc1ccc(Cl)cc1 [Compound 12]
31

----------
System: Phytophthora infestans
Type: cell-based
REPORTED CONDITIONS: PI, 2.5 ppm, 48 hours
Consider the following compounds; for each one, report its Spore Germination Rating.

If you can, please state the reported Spore Germination Rating value of N#Cc1ccc(Oc2nsnc(Cl)c2=O)cc1 [Compound 10] .
0 (0-10)

Another compound: Cc1cc(Oc2nsnc(Cl)c2=O)ccc1Cl [Compound 54]
0 (0-10)

Another compound: O=C(Nc1ccccc1)Nc1ccc(Oc2nsnc(Cl)c2=O)cc1 [Compound 29]
4 (80-100)

----------
Tested on: Pyricularia oryzae
TEST PROTOCOL: microbe, parasite or virus in culture
Type: cell-based
REPORTED CONDITIONS: Pyricularia oryzae, 72 h, read-out: Percent Fungus Growth Inhibition, PO, 5 ppm, 72 hours
Consider the following compounds; for each one, report its inhibition at 5 ppm.
// note: answer is a bare numeric in %

Reported inhibition at 5 ppm for Pyricularia oryzae, given O=c1c(Cl)nsnc1Oc1c(Cl)cc(Cl)cc1Cl [Compound 30] ?
10

Another compound: O=c1c(Cl)nsnc1Oc1ccccc1Cl [Compound 14]
23

Another compound: CC(=O)c1ccccc1Oc1nsnc(Cl)c1=O [Compound 49]
29

Another compound: Cc1cc(Cl)ccc1Oc1nsnc(Cl)c1=O [Compound 55]
41

Another compound: CC(C)(C)c1ccc(Oc2nsnc(Cl)c2=O)cc1 [Compound 4]
0

----------
Consider the following compounds; for each one, report its inhibition at 40 ppm.
Tested on: Pyricularia oryzae
TEST PROTOCOL: microbe, parasite or virus in culture
Type: cell-based
REPORTED CONDITIONS: Pyricularia oryzae, 72 h, read-out: Percent Fungus Growth Inhibition, PO, 40 ppm, 72 hours
// note: answer is a bare numeric in %

If you can, please state the reported inhibition at 40 ppm value of COc1cc(Oc2nsnc(Cl)c2=O)cc(OC)c1C(C)=O [Compound 61] .
44

Another compound: Cc1cccc(Oc2nsnc(Cl)c2=O)c1 [Compound 21]
58

Another compound: Cc1cc(Oc2nsnc(Cl)c2=O)ccc1Cl [Compound 54]
65

Another compound: Cc1cc(Oc2nsnc(Cl)c2=O)cc(C)c1Br [Compound 60]
64

Another compound: COc1cc(Cl)cc(Oc2nsnc(Cl)c2=O)c1 [Compound 52]
100

Another compound: Cc1ccc(Oc2nsnc(Cl)c2=O)c(C)c1 [Compound 23]
58

Another compound: O=c1c(Cl)nsnc1Oc1c(Cl)cccc1Cl [Compound 18]
48

Another compound: Cc1ccc(Oc2nsnc(Cl)c2=O)cc1 [Compound 3]
93

Another compound: CC(=O)Nc1ccccc1Oc1nsnc(Cl)c1=O [Compound 43]
24

Another compound: Cc1ccc(Cl)c(Oc2nsnc(Cl)c2=O)c1 [Compound 56]
100

Another compound: O=c1c(Cl)nsnc1Oc1ccccc1Cl [Compound 14]
100
